Biological target: T1, Macaca fascicularis (cynomolgus) CEACAM6, full-length, on transfected HeLa cells (Macaca fascicularis, GPI anchor at the C-terminus on the cell surface, not carried by the letters)
T1 construct: also called TPP-4189; HeLa Cynomolgus CEACAM6
T1 chain: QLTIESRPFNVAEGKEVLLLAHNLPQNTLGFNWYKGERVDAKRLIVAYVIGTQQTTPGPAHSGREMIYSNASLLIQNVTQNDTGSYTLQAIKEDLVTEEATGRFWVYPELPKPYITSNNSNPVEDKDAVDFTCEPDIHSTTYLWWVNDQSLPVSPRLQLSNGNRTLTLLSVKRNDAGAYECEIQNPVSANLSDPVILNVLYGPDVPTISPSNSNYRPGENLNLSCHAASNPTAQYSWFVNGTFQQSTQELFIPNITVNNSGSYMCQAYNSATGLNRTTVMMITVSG
Test: FACS, transfected HeLa cells
readout_kind: pEC50
pEC50 is a log-scale quantity: -log10 of the concentration expressed in molar.

See these solved cases before continuing.
# binder, pEC50
rows = [
    ("TPP-3820 (antibody, human IgG2, kappa, V domains shown, humanized from TPP-3187, human IgG2; also called 3187HU1-hIgG2Kappa) VH: QVTLRESGPALVKPTQTLTLTCTFSGFSLTTYGIGVGWIRQPPGKGLEWLAHIWWNDNKYYSTSLKTRLTISKDTSKNQVVLTMTNMDPVDTATYYCARISLPYFDYWGQGTLVTVSS VL: DIQLTQSPSFLSASVGDRVTITCKASQNVGTAVAWYQQKPGKAPKLLIYSASNRYTGVPSRFSGSGSGTEFTLTISSLQPEDFATYYCQQYNNYPLTFGGGTKVEIKR", 9.00),
    ("TPP-3323 (antibody, human IgG2, kappa, V domains shown, human IgG2 chimera; also called TPP-3187X1-hIgG2; hIgG2 chimera of TPP-3187) VH: QVTLKESGPGILQPSQTLSLTCSFSGFSLTTYGIGVGWIRQPSGKGLEWLAHIWWNDNKYYNTALKSRLTISKDTSNNQVFLKIASVDTADTATYYCARISLPYFDYWGQGTTLTVSS VL: DIVMTQSQKFMSTSVGDRVSITCKASQNVGTAVAWYQQKPGQSPKLLIYSASNRYTGVPDRFTGSGSGTDFTLTISNMQSEDLADYFCQQYNNYPLTFGAGTKLELKR", 9.10),
    ("TPP-3707 (antibody, human IgG2, kappa, V domains shown, also called 090E-M007-A09-Mat2-hIgG2-hIgG2Kappa) VH: EVQLVESGGGLVQPGGSLRLSCAASGFTFSLYQMHWVRQAPGKGLEWVSWISFSGGNTGYADSVKGRFTISRDNSKNTLYLQMNSLRAEDTAVYYCARATGYSSPWYLDPWGQGTLVTVSS VL: DIQMTQSPSSLSASVGDRVTITCQASHEIDNYLNWYQQKPGKAPKLLIYDAYWSKTGVPSRFSGSGSGTDFTLTISSLQPEDIATYYCQGYDDLSVTFGGGTKVDIKR", 8.40),
    ("TPP-2971 (antibody, mouse IgG1, V domains shown, murine hybridoma antibody, mouse IgG1; also called 792.15H12C9) VH: QVTLKESGPGILQPSQTLSLTCSFSGFSLSTYGIGVGWIRQPSGKDLEWLAHIWWNDNKYYNTALKSRLTISKDTSNNQVFLKIASVDTADTATYYCARISLPYFDYWGQGTTLTVSS VL: DIVMTQSQKFMSTSVGDRVSITCKASQNVGTAVAWYQQKPGQSPKLLIYSASNRYTGVPDRFTGSGSGTDFTLTISNMQSEDLADYFCQQYSSYPLTFGAGTKLELK", 9.30),
    ("TPP-3308 (antibody, human IgG2, kappa, V domains shown, human IgG2 chimera; also called TPP-2971X1-hIgG2Kappa; hIgG2 chimera of TPP-2971) VH: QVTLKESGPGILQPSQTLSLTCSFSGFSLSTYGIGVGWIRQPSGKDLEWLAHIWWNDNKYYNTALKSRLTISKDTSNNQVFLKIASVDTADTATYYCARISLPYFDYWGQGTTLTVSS VL: DIVMTQSQKFMSTSVGDRVSITCKASQNVGTAVAWYQQKPGQSPKLLIYSASNRYTGVPDRFTGSGSGTDFTLTISNMQSEDLADYFCQQYSSYPLTFGAGTKLELKR", 9.22),
    ("TPP-3821 (antibody, human IgG2, kappa, V domains shown, humanized from TPP-3187, human IgG2; also called 3187HU2-hIgG2Kappa) VH: QVTLRESGPALVKPTQTLTLTCTFSGFSLSTYGIGVGWIRQPPGKALEWLAHIWWNDNKYYSTSLKTRLTISKDTSKNQVVLTMTNMDPVDTATYYCARISLPYFDYWGQGTLVTVSS VL: DIQLTQSPSFLSASVGDRVTITCKASQNVGTAVAWYQQKPGKAPKLLIYSASNRYTGVPSRFSGSGSGTEFTLTISSLQPEDFATYYCQQYNNYPLTFGGGTKVEIKR", 9.00),
]

Let us examine a further case.
Sure, the documented pEC50 for TPP-3187 (antibody, mouse IgG1, V domains shown, murine hybridoma antibody, mouse IgG1; also called 792.15C4F4) VH: QVTLKESGPGILQPSQTLSLTCSFSGFSLTTYGIGVGWIRQPSGKGLEWLAHIWWNDNKYYNTALKSRLTISKDTSNNQVFLKIASVDTADTATYYCARISLPYFDYWGQGTTLTVSS VL: DIVMTQSQKFMSTSVGDRVSITCKASQNVGTAVAWYQQKPGQSPKLLIYSASNRYTGVPDRFTGSGSGTDFTLTISNMQSEDLADYFCQQYNNYPLTFGAGTKLELK is 8.40
